System: 8XTBD luciferase reporter
EXPERIMENTAL PROTOCOL: YAP Reporter Assay
Format: cell-based
CONDITION LABEL: Homo sapiens, HEK-293T; HEK293T cells stably transfected with 8XTBD luciferase reporter and pRLTK; 24-hr incubation; starting from 3 μM, 1:3 dilution, 10 points; read-out: Firefly Luciferase IC50
PROPERTY NAME: IC50

>>> df
                                   compound  recorded_value
0  CNS(=O)(=O)c1ccc(Nc2cc(F)cc(F)c2)c(-c2nnn(C)n2)c1 [Compound 108]     0.1 to 1 µM
1  CNS(=O)(=O)c1ccc(NC2CCCCC2)c(-c2nnn(C3CCN(C(C)=O)CC3)n2)c1 [Compound 31]     0.1 to 1 µM

Ask: Quote IC50 reported for CNS(=O)(=O)c1ccc(Nc2ccc(C(F)(F)F)cc2)c(-c2nnc(N)o2)c1 [Compound 133] please.
Result: 0.1 to 1 µM

Ask: Look up IC50 of CNS(=O)(=O)c1ccc(NC2CCCCC2)c(-c2nc(C)n(C)n2)c1 [Compound 67] and report it.
Result: ≤ 0.1 µM

Ask: Identify measured IC50 corresponding to CNS(=O)(=O)c1ccc(NC2CCCCC2)c(-c2cccnc2)c1 [Compound 77]
Result: > 3 µM

Ask: Complete the entry with IC50 for CNS(=O)(=O)c1ccc(Nc2ccc(-c3ccccc3)cc2)c(-c2nnn(C)n2)c1 [Compound 128]
Result: 1 to 3 µM

Ask: Determine from records and report IC50 for CNS(=O)(=O)c1ccc(Nc2cc(F)cc(F)c2)c(-c2nnnn2C)c1 [Compound 107]
Result: > 3 µM

Ask: Given the compound CNS(=O)(=O)c1ccc(NC2CCCCC2)c(-c2nnn(Cc3ccccc3F)n2)c1 [Compound 19] , write its reported IC50.
Result: ≤ 0.1 µM

Ask: Tell me measured IC50 for CNc1ccnc(-c2cc(S(=O)(=O)NC)ccc2NC2CCCCC2)c1 [Compound 88] please.
Result: ≤ 0.1 µM

Ask: Give me measured IC50, please, for this compound: CNS(=O)(=O)c1ccc(NC2CCCCC2)c(-c2cccc(N(C)C)n2)c1 [Compound 83]
Result: > 3 µM

----------
Tested on: 8XTBD luciferase reporter
EXPERIMENTAL PROTOCOL: YAP Reporter Assay
Format: cell-based
CONDITION LABEL: Homo sapiens, HEK-293T; HEK293T cells stably transfected with 8XTBD luciferase reporter and pRLTK; 24-hr incubation; starting from 3 μM, 1:3 dilution, 10 points; read-out: Firefly Luciferase IC50
PROPERTY NAME: IC50

Recorded IC50, per entry:
>>> df
                               entry_smiles  recorded_value
0  CNS(=O)(=O)c1ccc(Nc2ccccc2C(F)(F)F)c(-c2nnn(C)n2)c1       > 3000 nM
1  CNS(=O)(=O)c1ccc(NC2CCCCC2)c(-c2ccncn2)c1  100 to 1000 nM

Lab note: next molecule to report on.
Ask: Give a short answer stating reported IC50 for "CNS(=O)(=O)c1ccc(NC2CCCCC2)c(-c2nnn(C3CCN(C(=O)OC(C)C)CC3)n2)c1" .
Result: > 3000 nM
